system: Streptococcus pneumonia (5 strains); assay: MIC range, broader panel of Quotient Bioresearch strains (Table 3); conditions: Streptococcus pneumoniae, read-out: MIC Range High, Streptococcus pneumonia (5 strains)
Observable: MIC (µg/mL)
Kindly provide the numeric value in µg/mL only, without the unit symbol.

Asked: Report MIC from Streptococcus pneumonia (5 strains) testing of Cc1c(-c2ccncc2)ccn2c(=O)c(C(=O)[O-])cc(C3CC3)c12.[K+] [Example 16 K salt]
Given back: 1

Asked: Report MIC from Streptococcus pneumonia (5 strains) testing of Cc1c(-c2ccc(N)cc2)c(F)cn2c(=O)c(C(=O)[O-])cc(C3CC3)c12.[K+] [Example 5 K salt]
Given back: 0.25

Asked: Report MIC from Streptococcus pneumonia (5 strains) testing of Cc1c(-c2ccc(N)c(F)c2)c(F)cn2c(=O)c(C(=O)[O-])cc(C3CC3)c12.[K+] [Example 1 K salt]
Given back: 0.5

Asked: Report MIC from Streptococcus pneumonia (5 strains) testing of Cc1c(C2=CCNCC2)ccn2c(=O)c(C(=O)O)cc(C3CC3)c12
Given back: 8

Asked: Report MIC from Streptococcus pneumonia (5 strains) testing of Cc1c(-c2cc(F)c(N)c(F)c2)ccn2c(=O)c(C(=O)[O-])cc(C3CC3)c12.[K+] [Example 39 K salt]
Given back: 0.25

Asked: Report MIC from Streptococcus pneumonia (5 strains) testing of Cc1c(-c2ccc(CN)cc2)ccn2c(=O)c(C(=O)[O-])cc(C3CC3)c12.[K+] [Example 31 K salt]
Given back: 0.25

Asked: Report MIC from Streptococcus pneumonia (5 strains) testing of Cc1c(-c2ccc(C(N)=O)cc2)c(F)cn2c(=O)c(C(=O)[O-])cc(C3CC3)c12.[K+] [Example 6 K salt]
Given back: 0.25

---

experiment: Mouse pharmacokinetics, intravenous or oral 10 mg/kg (Table 9); type: in vivo; conditions: iv, mice, plasma
Where Cmax equals or exceeds 1000 ng/mL, the correct label is Y; where it does not, the label is N.

Asked: Hello, I need to know if Cc1c(-c2ccc(N)nc2)ccn2c(=O)c(C(=O)[O-])cc(C3CC3)c12.[K+] [Ex. 21 K salt] has measured Cmax not below 1000 ng/mL. Thanks!
Given back: N

Asked: Hello, I need to know if Cc1c(-c2cc(F)c(N)cc2F)ccn2c(=O)c(C(=O)[O-])cc(C3CC3)c12.[K+] [Ex. 28 K salt] has measured Cmax not below 1000 ng/mL. Thanks!
Given back: Y

Asked: Hello, I need to know if Cc1c(-c2ccc(O)cc2)ccn2c(=O)c(C(=O)[O-])cc(C3CC3)c12.[K+] [Ex. 46 K salt] has measured Cmax not below 1000 ng/mL. Thanks!
Given back: Y

Asked: Hello, I need to know if Cc1c(-c2ccc3[nH]ncc3c2)ccn2c(=O)c(C(=O)[O-])cc(C3CC3)c12.[K+] [Ex. 23 K salt] has measured Cmax not below 1000 ng/mL. Thanks!
Given back: Y

Asked: Hello, I need to know if Cc1c(-c2ccc(N)c(F)c2)ccn2c(=O)c(C(=O)[O-])cc(C3CC3)c12.[K+] [Ex. 2 K salt] has measured Cmax not below 1000 ng/mL. Thanks!
Given back: Y

---

test system: Haemophilus influenza (5 strains); experiment: MIC range, broader panel of Quotient Bioresearch strains (Table 4); assay type: cell-based, Haemophilus influenzae; conditions: High of the strain panel, read-out: MIC Range High, Haemophilus influenza (5 strains)
Observable: MIC

Asked: Identify measured MIC corresponding to Cc1c(-c2ccc(N)c(F)c2)ccn2c(=O)c(C(=O)[O-])cc(C3CC3)c12.[K+] [Example 2 K salt]
Given back: ≤ 0.015 µg/mL

Asked: Identify measured MIC corresponding to Cc1c(-c2cc(F)c(N)c(F)c2)ccn2c(=O)c(C(=O)[O-])cc(C3CC3)c12.[K+] [Example 39 K salt]
Given back: ≤ 0.015 µg/mL

Asked: Identify measured MIC corresponding to Cc1c(-c2ccc(N)cc2)c(F)cn2c(=O)c(C(=O)[O-])cc(C3CC3)c12.[K+] [Example 5 K salt]
Given back: ≤ 0.015 µg/mL

Asked: Identify measured MIC corresponding to Cc1c(-c2ccc(C(N)=O)cc2)c(F)cn2c(=O)c(C(=O)[O-])cc(C3CC3)c12.[K+] [Example 6 K salt]
Given back: 0.06 µg/mL

Asked: Identify measured MIC corresponding to Cc1c(-c2ccc(O)cc2)ccn2c(=O)c(C(=O)[O-])cc(C3CC3)c12.[K+] [Example 46 K salt]
Given back: ≤ 0.015 µg/mL

Asked: Identify measured MIC corresponding to Cc1c(C2=CCNCC2)ccn2c(=O)c(C(=O)O)cc(C3CC3)c12 [Example 42]
Given back: 0.06 µg/mL

Asked: Identify measured MIC corresponding to Cc1c(-c2ccc(N)c(F)c2)c(F)cn2c(=O)c(C(=O)[O-])cc(C3CC3)c12.[K+] [Example 1 K salt]
Given back: 0.03 µg/mL

Asked: Identify measured MIC corresponding to Cc1c(-c2cc(F)c(N)cc2F)ccn2c(=O)c(C(=O)[O-])cc(C3CC3)c12.[K+] [Example 28 K salt]
Given back: ≤ 0.015 µg/mL
